# procedureDetails: in vivo
# conditionLabel: Sprague-Dawley, rat, po, 25 mg/kg
# Description: Terminal half life in Sprague-Dawley rat at 25 mg/kg, po after 48 hrs by LC-MS method
observable: half-life at 48 h (h)
Just the number in h, nothing appended.

half-life at 48 h recorded for this compound, Fc1cc(COc2ccn3c(-c4cncnc4)cnc3n2)ccc1Oc1ccc(Cl)c(C(F)(F)F)c1 , is 13.3

half-life at 48 h recorded for this compound, N#Cc1cc(COc2ccn3c(-c4cncnc4)cnc3n2)ccc1Oc1ccc(Cl)c(C(F)(F)F)c1 , is 3.24

half-life at 48 h recorded for this compound, FC(F)(F)c1cc(Oc2ccc(COc3ccn4c(-c5cncnc5)cnc4n3)cc2)ccc1Cl , is 9.44

----------
# procedureDetails: in vitro
# conditionLabel: Wistar, rat, liver S9 fractions
observable: CLint scaled at 0.1 µM

CLint scaled at 0.1 µM recorded for this compound, FC(F)(F)c1cc(Oc2ccc(CCOc3ccn4c(-c5cncnc5)cnc4n3)cc2)ccc1Cl , is 34.3 mL/min/kg

----------
# assayedSystem: Platelet-activating factor acetylhydrolase (Mus musculus) (UniProt Q60963)
# Sequence (Q60963 whole entry): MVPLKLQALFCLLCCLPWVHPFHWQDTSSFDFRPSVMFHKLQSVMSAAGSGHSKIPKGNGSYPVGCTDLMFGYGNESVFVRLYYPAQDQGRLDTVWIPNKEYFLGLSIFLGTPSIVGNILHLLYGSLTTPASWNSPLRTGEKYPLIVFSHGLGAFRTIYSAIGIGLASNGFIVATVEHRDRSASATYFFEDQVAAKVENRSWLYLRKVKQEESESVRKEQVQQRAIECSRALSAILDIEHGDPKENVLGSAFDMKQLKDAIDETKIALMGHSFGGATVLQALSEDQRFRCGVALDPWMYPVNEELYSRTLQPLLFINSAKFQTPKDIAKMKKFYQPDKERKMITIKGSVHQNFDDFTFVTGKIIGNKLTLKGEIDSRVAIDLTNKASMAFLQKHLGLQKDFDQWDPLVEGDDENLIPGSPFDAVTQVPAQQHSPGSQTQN
# conditionLabel: Plasma, at 1 µM
# Description: Inhibition of Lp-PLA2 in mouse plasma at 1 uM using 2-thio-PAF substrate after 10 mins
Recorded inhibition values for a group of compounds are listed next.
Just the number in %, nothing appended.

Platelet-activating factor acetylhydrolase (Mus musculus) (UniProt Q60963) data for CCN(CC)CCN(Cc1ccc(-c2ccc(C(F)(F)F)cc2)cc1)C(=O)Cn1c(SCc2ccc(F)cc2)nc(=O)c2c1CCC2 ; its inhibition: 99

Platelet-activating factor acetylhydrolase (Mus musculus) (UniProt Q60963) data for FC(F)(F)c1cc(Oc2ccc(COc3ccn4c(-c5cncnc5)cnc4n3)cc2)ccc1Cl ; its inhibition: 56

Platelet-activating factor acetylhydrolase (Mus musculus) (UniProt Q60963) data for Cn1cc(-c2cnc3nc(OCc4ccc(Oc5ccc(Cl)c(C(F)(F)F)c5)cc4)ccn23)cn1 ; its inhibition: 28

Platelet-activating factor acetylhydrolase (Mus musculus) (UniProt Q60963) data for N#Cc1cc(COc2ccn3c(-c4cncnc4)cnc3n2)ccc1Oc1ccc(Cl)c(C(F)(F)F)c1 ; its inhibition: 0

Platelet-activating factor acetylhydrolase (Mus musculus) (UniProt Q60963) data for Fc1cc(COc2ccn3c(-c4cncnc4)cnc3n2)cc(F)c1Oc1ccc(Cl)c(C(F)(F)F)c1 ; its inhibition: 8

Next:
Platelet-activating factor acetylhydrolase (Mus musculus) (UniProt Q60963) data for FC(F)(F)c1cc(Oc2ccc(CCOc3ccn4c(-c5cncnc5)cnc4n3)cc2)ccc1Cl ; its inhibition: 53

Platelet-activating factor acetylhydrolase (Mus musculus) (UniProt Q60963) data for Fc1cc(COc2ccn3c(-c4cncnc4)cnc3n2)ccc1Oc1ccc(Cl)c(C(F)(F)F)c1 ; its inhibition: 13

----------
# procedureDetails: in vitro
# conditionLabel: human, liver S9 fractions
observable: CLint scaled at 0.1 µM
Answer by giving the amount and then stating its unit.

CLint scaled at 0.1 µM recorded for this compound, FC(F)(F)c1cc(Oc2ccc(CCOc3ccn4c(-c5cncnc5)cnc4n3)cc2)ccc1Cl , is 55.1 mL/min/kg

----------
# procedureDetails: in vivo
# conditionLabel: Sprague-Dawley, rat, po, 25 mg/kg
# Description: AUC (0 to infinity) in Sprague-Dawley rat at 25 mg/kg, po after 48 hrs by LC-MS method
Recorded AUC(0-inf) at 48 h values for a group of compounds are listed next.
Just the number in ng·h/mL, nothing appended.

Here are 2 compounds together with their reported answers.
AUC(0-inf) at 48 h recorded for this compound, Fc1cc(COc2ccn3c(-c4cncnc4)cnc3n2)ccc1Oc1ccc(Cl)c(C(F)(F)F)c1 , is 78100

AUC(0-inf) at 48 h recorded for this compound, N#Cc1cc(COc2ccn3c(-c4cncnc4)cnc3n2)ccc1Oc1ccc(Cl)c(C(F)(F)F)c1 , is 16100

Consider the record given below.
AUC(0-inf) at 48 h recorded for this compound, FC(F)(F)c1cc(Oc2ccc(COc3ccn4c(-c5cncnc5)cnc4n3)cc2)ccc1Cl , is 88000

----------
# procedureDetails: AUC (0 to infinity) in Sprague-Dawley rat at 50 mg/kg, po after 48 hrs by LC-MS method
# Format: ADME, organism-based
# Design: dose 50 mg/kg, route oral, time infinity
# conditionLabel: in vivo
observable: AUC(0-inf)
Answer by giving the amount and then stating its unit.

AUC(0-inf) recorded for this compound, CCN(CC)CCN(Cc1ccc(-c2ccc(C(F)(F)F)cc2)cc1)C(=O)Cn1c(SCc2ccc(F)cc2)nc(=O)c2c1CCC2 , is 2110 ng·h/mL

----------
# procedureDetails: in vitro
# conditionLabel: Wistar, rat, liver S9 fractions
observable: half-life at 0.1 µM

Here are 4 molecules together with their reported answers.
half-life at 0.1 µM recorded for this molecule, FC(F)(F)c1cc(Oc2ccc(CCOc3ccn4c(-c5cncnc5)cnc4n3)cc2)ccc1Cl , is 1.83 h

half-life at 0.1 µM recorded for this molecule, Fc1cc(COc2ccn3c(-c4cncnc4)cnc3n2)cc(F)c1Oc1ccc(Cl)c(C(F)(F)F)c1 , is 3.27 h

half-life at 0.1 µM recorded for this molecule, Fc1cc(COc2ccn3c(-c4cncnc4)cnc3n2)ccc1Oc1ccc(Cl)c(C(F)(F)F)c1 , is 2.82 h

half-life at 0.1 µM recorded for this molecule, N#Cc1cc(COc2ccn3c(-c4cncnc4)cnc3n2)ccc1Oc1ccc(Cl)c(C(F)(F)F)c1 , is 0.667 h

Next:
half-life at 0.1 µM recorded for this molecule, FC(F)(F)c1cc(Oc2ccc(COc3ccn4c(-c5cncnc5)cnc4n3)cc2)ccc1Cl , is 5.8 h

----------
# Organism: Rattus norvegicus
# conditionLabel: Sprague-Dawley, Plasma, 10 nM
# Description: Inhibition of Lp-PLA2 in Sprague-Dawley rat plasma at 10 nM using 2-thio-PAF substrate after 10 mins
observable: inhibition (%)
Just the number in %, nothing appended.

Here are 3 molecules together with their reported answers.
inhibition recorded for this molecule, FC(F)(F)c1cc(Oc2ccc(COc3ccn4c(-c5cncnc5)cnc4n3)cc2)ccc1Cl , is 10

inhibition recorded for this molecule, N#Cc1cc(COc2ccn3c(-c4cncnc4)cnc3n2)ccc1Oc1ccc(Cl)c(C(F)(F)F)c1 , is 14

inhibition recorded for this molecule, Cn1cc(-c2cnc3nc(OCc4ccc(Oc5ccc(Cl)c(C(F)(F)F)c5)cc4)ccn23)cn1 , is 13

Consider the record given below.
inhibition recorded for this molecule, Fc1cc(COc2ccn3c(-c4cncnc4)cnc3n2)ccc1Oc1ccc(Cl)c(C(F)(F)F)c1 , is 11

----------
Recorded half-life at 0.1 µM values for a group of compounds are listed next.
# procedureDetails: in vitro
# conditionLabel: human, liver S9 fractions
Answer by giving the amount and then stating its unit.

half-life at 0.1 µM recorded for this compound, Cn1cc(-c2cnc3nc(OCc4ccc(Oc5ccc(Cl)c(C(F)(F)F)c5)cc4)ccn23)cn1 , is 3 h

half-life at 0.1 µM recorded for this compound, FC(F)(F)c1cc(Oc2ccc(CCOc3ccn4c(-c5cncnc5)cnc4n3)cc2)ccc1Cl , is 0.7 h

half-life at 0.1 µM recorded for this compound, N#Cc1cc(COc2ccn3c(-c4cncnc4)cnc3n2)ccc1Oc1ccc(Cl)c(C(F)(F)F)c1 , is 1.77 h

half-life at 0.1 µM recorded for this compound, Fc1cc(COc2ccn3c(-c4cncnc4)cnc3n2)ccc1Oc1ccc(Cl)c(C(F)(F)F)c1 , is 5.52 h

half-life at 0.1 µM recorded for this compound, FC(F)(F)c1cc(Oc2ccc(COc3ccn4c(-c5cncnc5)cnc4n3)cc2)ccc1Cl , is 1.93 h

Consider the record given below.
half-life at 0.1 µM recorded for this compound, Fc1cc(COc2ccn3c(-c4cncnc4)cnc3n2)cc(F)c1Oc1ccc(Cl)c(C(F)(F)F)c1 , is 3.53 h

----------
# procedureDetails: Cmax in Sprague-Dawley rat at 50 mg/kg, po after 48 hrs by LC-MS method
# Type: ADME, organism-based
# Parameters: dose 50 mg/kg, route oral
# conditionLabel: in vivo
observable: Cmax (ng/mL)
Just the number in ng/mL, nothing appended.

Cmax recorded for this compound, CCN(CC)CCN(Cc1ccc(-c2ccc(C(F)(F)F)cc2)cc1)C(=O)Cn1c(SCc2ccc(F)cc2)nc(=O)c2c1CCC2 , is 150

The reported numbers originate from ChEMBL document CHEMBL3632460.
